- Tested on: L1210
- protocol: Antitumor activity against mouse L1210 cells […] in ip dosed C3H X DBA2 F1 hybrid mouse on day 0 and dosed once daily on days 1 to 5 assessed as increase in life span relative to control
- Format: functional
# if value of D40 reaches 10 mg/kg, tag Yes; if it stays below, tag No

| item-smiles | category-label |
| --- | --- |
| C[n+]1cc(-c2ccc(NC(=O)c3ccc(Nc4cc[n+](C)c5ccccc45)cc3)cc2)c(N)nc1N.Cc1ccc(S(=O)(=O)[O-])cc1.Cc1ccc(S(=O)(=O)[O-])cc1 | No |
| Cc1c(C(=O)Nc2ccc(C(=O)Nc3ccc[n+](C)c3)cc2)ccc(C(=O)Nc2ccc(C(=O)Nc3ccc[n+](C)c3)cc2)c1C.Cc1ccc(S(=O)(=O)[O-])cc1.Cc1ccc(S(=O)(=O)[O-])cc1 | Yes |
| CC[n+]1cccc(NC(=O)c2ccc(NC(=O)c3ccc(C(=O)Nc4ccc(C(=O)Nc5ccc[n+](CC)c5)cc4)c(C)c3)cc2)c1.Cc1ccc(S(=O)(=O)[O-])cc1.Cc1ccc(S(=O)(=O)[O-])cc1 | No |
| CC[n+]1ccc(Nc2ccc(NC(=O)c3ccc(C(=O)Nc4ccc(Nc5cc[n+](CC)cc5)cc4)cc3)cc2)cc1.Cc1ccc(S(=O)(=O)[O-])cc1.Cc1ccc(S(=O)(=O)[O-])cc1 | No |
| CCC[n+]1ccc(-c2ccc(-c3ccc(-c4ccc(NC(=O)c5ccc(C(=O)Nc6ccc(-c7ccc(-c8ccc(-c9cc[n+](CCC)cc9)cc8)cc7)cc6)cc5)cc4)cc3)cc2)cc1.Cc1ccc(S(=O)(=O)[O-])cc1.Cc1ccc(S(=O)(=O)[O-])cc1 | No |
| C/C(=N\NC(=N)N)c1ccc(NC(=O)Nc2ccc(Nc3c4ccccc4[n+](C)c4cc(N)ccc34)cc2)cc1.Cl.[Cl-] | No |
| CC[n+]1cccc2cc(NC(=O)c3ccc(NC(=O)c4ccc(C(=O)Nc5ccc6c(ccc[n+]6CC)c5)cc4)cc3)ccc21.Cc1ccc(S(=O)(=O)[O-])cc1.Cc1ccc(S(=O)(=O)[O-])cc1 | Yes |
| C[n+]1cccc(NC(=O)c2ccc(NC(=O)c3ccc(C(=O)Nc4ccc(NC(=N)NC(=N)N)cc4)cc3)cc2)c1.I.[I-] | No |
| COc1cc(N)cc2c(Nc3ccc(NC(=O)c4ccc(Nc5cc[n+](C)cc5)cc4)cc3)cc[n+](C)c12.Cc1ccc(S(=O)(=O)[O-])cc1.Cc1ccc(S(=O)(=O)[O-])cc1 | No |
| CCC[n+]1cccc(NC(=O)c2ccc(NC(=O)/C=C/c3ccc(C(=O)Nc4ccc(C(=O)Nc5ccc[n+](CCC)c5)cc4)cc3)cc2)c1.Cc1ccc(S(=O)(=O)[O-])cc1.Cc1ccc(S(=O)(=O)[O-])cc1 | Yes |

* * *

- protocol: Displacement of ethidium from poly[d(G-C)]-poly[d(G-C)] DNA (unknown origin) by fluorimetric method
Each entry below lists one item and its recorded C50 value.
parameter-measured: C50 (µM)

| item-smiles | unit-of-measurement | quantitative-result |
| --- | --- | --- |
| COc1cc(C(=O)Nc2ccc(C(=O)Nc3ccc[n+](C)c3)cc2)ccc1C(=O)Nc1ccc(C(=O)Nc2ccc[n+](C)c2)cc1.Cc1ccc(S(=O)(=O)[O-])cc1.Cc1ccc(S(=O)(=O)[O-])cc1 | µM | 1.51 |
| C/C(=N\NC(=N)N)c1ccc(NC(=O)Nc2ccc(Nc3c4ccccc4[n+](C)c4cc(N)ccc34)cc2)cc1.Cl.[Cl-] | µM | 0.2 |
| C[n+]1cccc2cc(NC(=O)c3ccc(C(=O)Nc4ccc(NC(=O)c5ccc6c(ccc[n+]6C)c5)cc4)cc3)ccc21.Cc1ccc(S(=O)(=O)[O-])cc1.Cc1ccc(S(=O)(=O)[O-])cc1 | µM | 0.8 |
| C[n+]1ccc(Nc2ccc(NC(=O)Nc3ccc(Nc4cc[n+](C)c5ccc(N)cc45)cc3)cc2)cc1.Cc1ccc(S(=O)(=O)[O-])cc1.Cc1ccc(S(=O)(=O)[O-])cc1 | µM | 1.2 |
| C[n+]1ccc(Nc2ccc(NC(=O)c3ccc(C(=O)Nc4ccc(Nc5cc[n+](C)c(N)n5)cc4)cc3)cc2)nc1N.Cc1ccc(S(=O)(=O)[O-])cc1.Cc1ccc(S(=O)(=O)[O-])cc1 | µM | 0.64 |
| CC[n+]1ccc(Nc2ccc(NC(=O)c3ccc(Nc4cc[n+](CC)c5ccc(N)cc45)cc3)cc2)cc1.[Br-].[Br-] | µM | 1.04 |
| C[n+]1ccc(Nc2ccc(/C=C/c3ccc(Nc4cc[n+](C)c5ccccc45)cc3)cc2)cc1.[Br-].[Br-] | µM | 0.67 |
| CCCC[n+]1cccc(NC(=O)c2ccc(NC(=O)c3ccc(C(=O)Nc4ccc(C(=O)Nc5ccc[n+](CCCC)c5)cc4)cc3)cc2)c1.Cc1ccc(S(=O)(=O)[O-])cc1.Cc1ccc(S(=O)(=O)[O-])cc1 | µM | 0.93 |
| CCCCC[n+]1cccc(NC(=O)c2ccc(NC(=O)c3ccc(C(=O)Nc4ccc(C(=O)Nc5ccc[n+](CCCCC)c5)cc4)cc3)cc2)c1.Cc1ccc(S(=O)(=O)[O-])cc1.Cc1ccc(S(=O)(=O)[O-])cc1 | µM | 0.92 |
| C[n+]1ccc(Nc2ccc(NC(=O)c3ccc(Nc4cc[n+](C)c5ccc(Cl)cc45)cc3)cc2)cc1.Cc1ccc(S(=O)(=O)[O-])cc1.Cc1ccc(S(=O)(=O)[O-])cc1 | µM | 1.76 |
| C[n+]1cccc(NC(=O)c2ccc(NC(=O)c3ccc(C(=O)Nc4ccc(C(=O)Nc5ccc[n+](C)c5)cc4Cl)cc3)c(Cl)c2)c1.Cc1ccc(S(=O)(=O)[O-])cc1.Cc1ccc(S(=O)(=O)[O-])cc1 | µM | 1.5 |
| C[n+]1cccc(NC(=O)c2ccc(NC(=O)c3ccc(C(=O)Nc4ccc(C(=O)Nc5ccc[n+](C)c5)cc4)c(N)c3)cc2)c1.Cc1ccc(S(=O)(=O)[O-])cc1.Cc1ccc(S(=O)(=O)[O-])cc1 | µM | 0.93 |
| CC[n+]1cccc2cc(NC(=O)c3ccc(-c4ccc(-c5ccc(-c6ccc(C(=O)Nc7ccc8c(ccc[n+]8CC)c7)cc6)cc5)cc4)cc3)ccc21.Cc1ccc(S(=O)(=O)[O-])cc1.Cc1ccc(S(=O)(=O)[O-])cc1 | µM | 0.61 |
| C[n+]1cccc(NC(=O)c2ccc(NC(=O)c3ccc(C(=O)Nc4ccc(NC(=N)N)cc4)cc3)cc2)c1.I.[I-] | µM | 2.07 |
| C/C(=N\NC(=N)N)c1ccc(NC(=O)c2ccc(Nc3cc[n+](C)c4cc(N)ccc34)cc2)cc1.Cc1ccc(S(=O)(=O)O)cc1.Cc1ccc(S(=O)(=O)[O-])cc1 | µM | 1 |
| C[n+]1ccc(Nc2ccc(C(=O)Nc3ccc(Nc4cc[n+](C)c5ccccc45)cc3N)cc2)cc1.[Br-].[Br-] | µM | 2.05 |
| C[n+]1cccc(NC(=O)c2ccc(NC(=O)c3ccc(C(=O)Nc4ccc(N/N=N/c5ccc(C(=N)N)cc5)cc4)cc3)cc2)c1.Cc1ccc(S(=O)(=O)O)cc1.Cc1ccc(S(=O)(=O)[O-])cc1 | µM | 0.64 |
| C[n+]1cccc(NC(=O)c2ccc(NC(=O)c3ccc(C(=O)Nc4ccc(C(=O)Nc5ccc[n+](C)c5)c(N)c4)cc3)cc2N)c1.Cc1ccc(S(=O)(=O)[O-])cc1.Cc1ccc(S(=O)(=O)[O-])cc1 | µM | 0.39 |
| CC[n+]1ccc(Nc2ccc(NC(=O)c3ccc(Nc4cc(C)[n+](CC)c5ccc(N)cc45)cc3N)cc2)cc1.[I-].[I-] | µM | 1.17 |
| C[n+]1ccc(Nc2ccc(NC(=O)c3ccc(Nc4nc[n+](C)c5ccc(N)cc45)cc3)cc2)cc1.Cc1ccc(S(=O)(=O)[O-])cc1.Cc1ccc(S(=O)(=O)[O-])cc1 | µM | 1.7 |
| CC[n+]1cc(-c2ccc(NC(=O)c3ccc(C(=O)Nc4ccc(-c5c[n+](CC)c(N)nc5N)cc4)cc3)cc2)c(N)nc1N.Cc1ccc(S(=O)(=O)[O-])cc1.Cc1ccc(S(=O)(=O)[O-])cc1 | µM | 2.1 |
| C[n+]1ccc(Nc2ccc(NC(=O)c3ccc(Nc4cc[n+](C)c5ccccc45)cc3)cc2)cc1.[Br-].[Br-] | µM | 3 |

The reported measurements were obtained from ChEMBL document CHEMBL3228010.
